# STUDY_TARGET: αβγXENaC (Xenopus ENaC) (Xenopus laevis, UniProt P51167+P51169+P51171)
# Sequence (P51167 whole entry): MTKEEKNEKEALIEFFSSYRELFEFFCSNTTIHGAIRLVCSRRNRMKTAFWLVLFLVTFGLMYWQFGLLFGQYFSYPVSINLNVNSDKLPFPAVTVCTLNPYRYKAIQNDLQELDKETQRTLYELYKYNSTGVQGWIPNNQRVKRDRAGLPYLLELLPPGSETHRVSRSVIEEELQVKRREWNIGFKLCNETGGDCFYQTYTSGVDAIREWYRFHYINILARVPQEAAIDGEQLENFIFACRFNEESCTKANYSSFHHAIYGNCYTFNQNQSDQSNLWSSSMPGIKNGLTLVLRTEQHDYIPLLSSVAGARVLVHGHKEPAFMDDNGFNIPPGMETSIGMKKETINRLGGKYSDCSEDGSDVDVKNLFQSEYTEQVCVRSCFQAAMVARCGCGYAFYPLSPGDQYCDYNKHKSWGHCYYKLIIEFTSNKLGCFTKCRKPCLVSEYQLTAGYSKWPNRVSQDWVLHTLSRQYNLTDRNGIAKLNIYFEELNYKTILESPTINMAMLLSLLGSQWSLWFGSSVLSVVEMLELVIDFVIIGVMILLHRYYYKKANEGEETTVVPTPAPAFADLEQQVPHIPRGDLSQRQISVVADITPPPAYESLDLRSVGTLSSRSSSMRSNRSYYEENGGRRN
# Sequence (P51169 whole entry): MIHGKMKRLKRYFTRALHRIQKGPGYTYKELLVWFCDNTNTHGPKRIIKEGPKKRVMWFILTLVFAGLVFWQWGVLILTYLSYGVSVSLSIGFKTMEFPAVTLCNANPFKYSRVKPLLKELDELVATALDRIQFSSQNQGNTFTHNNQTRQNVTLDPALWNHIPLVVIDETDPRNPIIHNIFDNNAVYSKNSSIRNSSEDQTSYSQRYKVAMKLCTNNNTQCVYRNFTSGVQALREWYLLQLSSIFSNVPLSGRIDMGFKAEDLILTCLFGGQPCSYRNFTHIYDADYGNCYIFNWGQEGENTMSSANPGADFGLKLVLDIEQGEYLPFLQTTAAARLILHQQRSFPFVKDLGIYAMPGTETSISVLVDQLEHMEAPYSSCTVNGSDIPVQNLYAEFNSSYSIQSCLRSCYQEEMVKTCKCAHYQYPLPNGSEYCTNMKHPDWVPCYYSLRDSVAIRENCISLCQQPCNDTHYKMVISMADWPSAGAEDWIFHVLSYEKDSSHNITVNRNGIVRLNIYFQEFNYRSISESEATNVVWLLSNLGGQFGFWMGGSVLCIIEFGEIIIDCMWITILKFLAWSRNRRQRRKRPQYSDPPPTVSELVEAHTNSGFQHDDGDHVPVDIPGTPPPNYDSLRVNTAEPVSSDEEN
# Sequence (P51171 whole entry): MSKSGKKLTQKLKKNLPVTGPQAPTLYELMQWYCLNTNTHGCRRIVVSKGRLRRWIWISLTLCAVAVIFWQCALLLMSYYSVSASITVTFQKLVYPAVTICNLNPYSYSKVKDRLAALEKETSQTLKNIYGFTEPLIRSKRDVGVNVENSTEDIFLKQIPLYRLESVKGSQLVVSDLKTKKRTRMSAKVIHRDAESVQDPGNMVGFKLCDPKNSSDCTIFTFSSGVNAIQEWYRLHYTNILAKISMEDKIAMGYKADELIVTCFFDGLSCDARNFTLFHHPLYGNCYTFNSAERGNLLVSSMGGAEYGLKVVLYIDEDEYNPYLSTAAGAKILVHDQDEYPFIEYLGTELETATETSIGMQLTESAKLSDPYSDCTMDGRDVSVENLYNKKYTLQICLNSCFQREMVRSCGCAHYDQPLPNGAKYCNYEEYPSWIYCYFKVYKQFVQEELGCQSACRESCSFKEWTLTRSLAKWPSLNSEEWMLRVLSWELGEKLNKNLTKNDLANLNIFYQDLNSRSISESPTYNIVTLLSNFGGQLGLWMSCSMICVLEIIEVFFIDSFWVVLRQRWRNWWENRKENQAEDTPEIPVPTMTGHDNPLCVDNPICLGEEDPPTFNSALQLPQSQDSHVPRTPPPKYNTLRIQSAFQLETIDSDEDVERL
# ASSAY_TEXT: two-electrode voltage clamp of Na+ current in oocytes
ASSAY_READOUT: Ki (nM)
Answer format: numeric, nM implied, no suffix.

Given the compound N=C(N)NC(=O)c1nc(Cl)c(N)nc1N [amiloride] , write its reported Ki.
550

// data source = paper PMC1887769
